Biological target: Metabotropic glutamate receptor 8 (Rattus norvegicus) (UniProt P70579)
Sequence (P70579 whole entry, looked up): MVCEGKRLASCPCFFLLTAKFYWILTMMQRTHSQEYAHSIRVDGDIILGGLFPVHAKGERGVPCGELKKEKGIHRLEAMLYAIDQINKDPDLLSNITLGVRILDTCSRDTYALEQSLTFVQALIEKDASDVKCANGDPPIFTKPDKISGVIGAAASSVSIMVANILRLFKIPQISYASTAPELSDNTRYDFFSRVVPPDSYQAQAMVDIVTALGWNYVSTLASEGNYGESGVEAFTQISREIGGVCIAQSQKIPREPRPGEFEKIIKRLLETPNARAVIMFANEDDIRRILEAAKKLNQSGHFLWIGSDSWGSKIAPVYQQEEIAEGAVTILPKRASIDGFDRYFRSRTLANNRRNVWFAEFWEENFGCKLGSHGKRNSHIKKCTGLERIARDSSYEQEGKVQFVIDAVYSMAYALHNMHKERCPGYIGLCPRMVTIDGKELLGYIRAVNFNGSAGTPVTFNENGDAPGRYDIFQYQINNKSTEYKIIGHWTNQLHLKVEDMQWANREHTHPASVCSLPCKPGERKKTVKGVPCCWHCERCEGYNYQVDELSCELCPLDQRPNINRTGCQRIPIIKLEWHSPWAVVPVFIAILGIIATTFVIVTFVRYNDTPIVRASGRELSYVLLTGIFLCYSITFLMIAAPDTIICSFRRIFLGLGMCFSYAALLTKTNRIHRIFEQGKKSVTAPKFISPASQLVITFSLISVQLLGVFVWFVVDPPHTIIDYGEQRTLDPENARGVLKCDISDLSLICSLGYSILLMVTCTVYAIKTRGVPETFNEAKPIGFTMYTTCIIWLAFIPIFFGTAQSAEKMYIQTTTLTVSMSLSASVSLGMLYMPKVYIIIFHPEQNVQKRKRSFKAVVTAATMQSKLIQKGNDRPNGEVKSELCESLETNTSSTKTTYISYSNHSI
Test: mGluR8 Gi/Go-coupled signaling modulation – cell-based, rat, thallium flux, HTS, primary screen (AID 488969)
Details: HEK293 rat mGluR8, GIRK thallium flux, FluoZin2; at 10 µM; stronger effect = higher value; submaximal glutamate (EC20) added with thallium
Over roughly 110,000 compounds, “z-score” has its median near -0.1; the highest 2% begin near 2. This is one part of a sample in which the highest values are shown more often than they occur.
endpoint: z-score
// no unit, no text: just the number

These recorded examples may help you get a feel for the data.
INPUT: Reported z-score for `CON(c1nc(N(C)C)nc(N(C)C)n1)S(=O)(=O)c1ccccc1Cl` : what is it?
OUTPUT: -0.678

INPUT: GET /values?readout=z-score&item= `COc1cc(C)nc(N(C)S(=O)(=O)c2ccccc2Cl)n1`
OUTPUT: -0.0755

INPUT: I am curious: what z-score value has been reported for `CCOc1ccc(NC(=O)CCNc2c(N3CCCC3)c(=O)c2=O)cc1` ?
OUTPUT: -0.437

INPUT: Requested field: z-score. Item: `CCCCCCCCCn1c2c(c(=N)c3c1CCC3)CCC2`
OUTPUT: 4.64

INPUT: Bench note: what z-score did `CCCCC(=O)Nc1cc(C(=O)NCCc2ccccc2)ccc1Cl` show?
OUTPUT: 0.145

INPUT: Which z-score is reported for this compound? `CCCCCCn1c2c(c(=N)c3c1CCC3)CCC2`
OUTPUT: 1.81

INPUT: Param item = O=C(NCCCN1CCCCC1)c1ccc2c(c1)NC(=O)C(N1CCCCC1)S2 (stereo unspecified) ; retrieve measured z-score.
OUTPUT: 0.905

INPUT: # get_value(readout='z-score', item= `CS(=O)(=O)c1ccc(Cl)c(S(=O)(=O)NCc2ccccc2)c1` )
OUTPUT: 0.117

More entries:
INPUT: // z-score lookup, key: `CCCCCCCCCCn1c2c(c(=N)c3c1CCC3)CCC2`
OUTPUT: 0.554

INPUT: // z-score lookup, key: `CCNS(=O)(=O)c1cc(S(C)(=O)=O)ccc1Cl`
OUTPUT: 8.32

INPUT: # lookup: z-score of CCOC(=O)c1ccc(NC(=O)C2=C(C)Nc3nc(CCCO)nn3C2c2cccc(C)c2)cc1 (stereo unspecified)
OUTPUT: 0.0656

---

z-score reference
Biological target: Metabotropic glutamate receptor 8 (Rattus norvegicus)
Test: mGluR8 Gi/Go-coupled signaling modulation – cell-based, rat, thallium flux, HTS, primary screen (AID 488969)
Settings: HEK293 rat mGluR8, GIRK thallium flux, FluoZin2; at 10 µM; stronger effect = higher value; submaximal glutamate (EC20) added with thallium
The full ranking holds about 110,000 compounds; the median of “z-score” is about -0.1, and the highest 2% start at about 2. The list comes from a sample in which the highest values are over-represented; it also holds close analogues and randomly drawn compounds.
Just the number.

Below, each entry is followed by its recorded z-score result.
INPUT: For the record Cc1ccc(C)c(NC(=S)NNC(=O)c2cc3c(s2)CCC(C)C3)c1 (stereo unspecified) , what value of z-score is listed for Metabotropic glutamate receptor 8 (Rattus norvegicus)?
OUTPUT: 10.3

INPUT: Please provide the recorded z-score for `Cc1c(C(=O)NCc2cccnc2)oc2ccc(S(=O)(=O)N3CCC4(CC3)OCCO4)cc12` , tested on Metabotropic glutamate receptor 8 (Rattus norvegicus).
OUTPUT: 5.95

INPUT: Which measured z-score belongs to CC1CCc2sc(C(=O)N/N=C/C3CCCCC3)cc2C1 (stereo unspecified) , tested on Metabotropic glutamate receptor 8 (Rattus norvegicus)?
OUTPUT: -0.764

***
INPUT: z-score of `Cc1ccccc1NC(=O)c1csc2c1CCCC2` on Metabotropic glutamate receptor 8 (Rattus norvegicus)?
OUTPUT: -0.435

INPUT: Provide value of z-score for this record tested with Metabotropic glutamate receptor 8 (Rattus norvegicus): `CCc1c(C(=O)Nc2nnc(C3CC3)s2)csc1C`
OUTPUT: 1.09

INPUT: Form: Entry = `Cc1c(C(=O)NCc2cccnc2)oc2ccc(S(=O)(=O)N3CCCCC3)cc12` | System = Metabotropic glutamate receptor 8 (Rattus norvegicus) | z-score = ____
OUTPUT: 1.3

---

Target: Metabotropic glutamate receptor 8 (Rattus norvegicus)
Assay: mGluR8 Gi/Go-coupled signaling modulation – cell-based, rat, thallium flux, HTS, primary screen (AID 488969)
Details: HEK293 rat mGluR8, GIRK thallium flux, FluoZin2; at 10 µM; stronger effect = higher value; submaximal glutamate (EC20) added with thallium
Over roughly 110,000 compounds, “z-score” has its median near -0.1; the highest 2% begin near 2. The sample as a whole holds a higher share of the highest values than the screen did.
Parameter threshold = -0.07. Response is 1 when z-score meets or exceeds it, else -1.

Worked cases, answers included:
INPUT: Determine whether this compound has z-score no lower than -0.07: `O=C(Cc1ccccc1F)Nc1ccc(Cl)nc1`
OUTPUT: 1

INPUT: Tell me whether z-score is at least -0.07 here: CN(C)CCCN1C(=O)CSC1c1ccccc1 (stereo unspecified)
OUTPUT: -1

INPUT: Does z-score meet or surpass -0.07 for `CCOC(=O)c1cc(CC)sc1NC(=O)c1ccc(N2C(=O)CCC2=O)cc1` ?
OUTPUT: -1

INPUT: Is the recorded value of z-score equal to or greater than -0.07 for this compound? CCN1CCCC1CNc1ncnc2c1[nH]c1ccc(F)cc12 (stereo unspecified)
OUTPUT: 1

INPUT: Say whether `O=C(CNC(=O)c1ccccc1F)NCCOc1cccc(Cl)c1Cl` shows z-score of -0.07 or more.
OUTPUT: 1

Next:
INPUT: In plain terms: is recorded z-score at least -0.07 for `CSc1ccc(/C=N/NC(=O)CN2CCN(Cc3ccccc3)CC2)cc1` ?
OUTPUT: -1

INPUT: Given `COc1ccc(-n2c(=O)[nH]cc(C(=O)Nc3ccccc3)c2=O)cc1` , state whether its z-score is at least -0.07.
OUTPUT: 1

INPUT: Please check the record `c1ccc2c(c1)CCCN2c1nc2ccccc2n2cnnc12` and state if its z-score is at or above -0.07.
OUTPUT: -1

INPUT: Can `Cc1cccc(Nc2n[nH]c(C)c2[N+](=O)[O-])c1` be said to have z-score at or above -0.07?
OUTPUT: 1

INPUT: Please check the record CC(=O)c1ccc(OCC(O)CN2CCCC(C)C2)cc1 (stereo unspecified) and state if its z-score is at or above -0.07.
OUTPUT: 1

INPUT: Has `COc1cccc(-n2c(=O)[nH]cc(C(=O)Nc3ccc(NC(C)=O)cc3)c2=O)c1` a recorded z-score greater than or equal to -0.07?
OUTPUT: -1

---

Target: Metabotropic glutamate receptor 8 (Rattus norvegicus)
Test: mGluR8 Gi/Go-coupled signaling modulation – cell-based, rat, thallium flux, HTS, primary screen (AID 488969)
Conditions: HEK293 rat mGluR8, GIRK thallium flux, FluoZin2; at 10 µM; stronger effect = higher value; submaximal glutamate (EC20) added with thallium
Over roughly 110,000 compounds, “z-score” has its median near -0.1; the highest 2% begin near 2. Many of the other results were omitted from the sample, so the highest values are more common in it than they were.
# if value of z-score reaches -0.2, tag y; if it stays below, tag n

// below: answered compounds
INPUT: // inclusive: z-score at least -0.2? input: `COc1ccccc1CNC(=O)/C=C/c1cc2c(cc1Br)OCO2`
OUTPUT: y

INPUT: Quick check, z-score >= -0.2? Cc1ccc(C)c(-n2cc(-c3ccc(Cl)cc3)nc2SCC(=O)NC2CCS(=O)(=O)C2)c1 (stereo not drawn)
OUTPUT: n

INPUT: Confirm if z-score reported for the compound `COC(=O)Cc1nnc(NC(=O)C(C)C)s1` is -0.2 or above.
OUTPUT: y

INPUT: Does `CC(C)c1cc(C(F)(F)F)n2nc(C(=O)Nc3ccc4c(c3)OCO4)cc2n1` have a reported z-score of at least -0.2?
OUTPUT: y

Further cases:
INPUT: Hi team, for `CC(C)C(=O)Nc1nnc(CCc2nnc(NC(=O)C(C)C)s2)s1` , is the recorded z-score at or above -0.2?
OUTPUT: y

INPUT: Threshold query (z-score >= -0.2) on CC(C)OC(=O)c1ccc(N2C(=O)C3CC=CCC3C2=O)cc1 (stereo not drawn)
OUTPUT: y

INPUT: Can `COCc1nnc(NC(=O)C(C)C)s1` be said to have z-score at or above -0.2?
OUTPUT: y

---

Molecular target: Metabotropic glutamate receptor 8 (Rattus norvegicus)
Experiment: mGluR8 Gi/Go-coupled signaling modulation – cell-based, rat, thallium flux, HTS, primary screen (AID 488969)
Conditions: HEK293 rat mGluR8, GIRK (G protein-gated inwardly rectifying potassium channel) thallium flux, FluoZin2; at 10 µM; stronger effect = higher value; submaximal glutamate (EC20) added with thallium
The full ranking holds about 110,000 compounds; the median of “z-score” is about -0.1, and the highest 2% start at about 2. The entries come from a sample that favours the highest values as a whole.
endpoint: z-score
Format: numeric value only, no unit, no commentary.

INPUT: # lookup: z-score of `CN(C1CCCCC1)S(=O)(=O)c1ccc(S(=O)(=O)N2CCN(CCC#N)CC2)cc1`
OUTPUT: 0.242

# context switch: different compound, same z-score
INPUT: Tell me the measured z-score of `CCC(=O)N/C(=N\OCc1ccc(F)cc1)c1nonc1NC(=O)CC` , please.
OUTPUT: -0.064
